Hey, just so you know, these numbers are from PubChem BioAssay AID1963971.

Tested on: 953936-095-R-J2-PDC spheroids with HUVEC/MSC, viability
procedure text: Anticancer human tumor 953936-095-R-J2-PDC patient-derived cervical squamous cell carcinoma cell line growth inhibition [PI3K]
cond: second compound 0.1 µM; first compound 3.16 µM; stronger effect = lower value
observable: viability, T/C (%)
Provide the reading as a plain figure in %.

molecule	viability, T/C, %
CNC(=O)c1ccc(N2C(=S)N(c3ccc(C#N)c(C(F)(F)F)c3)C(=O)C2(C)C)cc1F + CC(Nc1ncnc2nc[nH]c12)c1cc2cccc(Cl)c2c(=O)n1-c1ccccc1	83.2
Cn1ncc(Cl)c1-c1cc(C(=O)NC(CN)Cc2cccc(F)c2)sc1Cl (stereo unspecified) + CC(Nc1ccc2c(c1)OCCn1cc(N3C(=O)OCC3C(F)F)nc1-2)C(N)=O	13.6
CCCS(=O)(=O)Nc1ccc(F)c(C(=O)c2c[nH]c3ncc(-c4ccc(Cl)cc4)cc23)c1F + CC(Nc1ncnc2nc[nH]c12)c1cc2cccc(Cl)c2c(=O)n1-c1ccccc1	104
C[C@@H](NC(=O)c1ncnc(N)c1Cl)c1ncc(C(=O)Nc2cc(C(F)(F)F)c(Cl)cn2)s1 + CC(Nc1ncnc2nc[nH]c12)c1cc2cccc(Cl)c2c(=O)n1-c1ccccc1	117
Cn1nccc1Nc1nccc(-c2ccn(C(CO)c3ccc(Cl)c(F)c3)c(=O)c2)n1 (stereo unspecified) + COc1c(OCCCN2CCOCC2)ccc2c3n(c(=NC(=O)c4cnc(N)nc4)nc12)CCN3	8.15

Next item in the queue.
Write down the reported viability, T/C of CC(Cn1ccc(-c2ccc(C#N)c(Cl)c2)n1)NC(=O)c1cc(C(C)O)[nH]n1 (stereo unspecified) + CC(Nc1ncnc2nc[nH]c12)c1cc2cccc(Cl)c2c(=O)n1-c1ccccc1 , test system: 953936-095-R-J2-PDC spheroids with HUVEC/MSC, viability.
101

----------
Tested on: 953936-095-R-J2-PDC spheroids with HUVEC/MSC, viability
procedure text: Anticancer human tumor 953936-095-R-J2-PDC cell line growth inhibition [PI3K];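 also: spheroids exposed to compounds for seven days before read-out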
cond: curve of first compound; second compound 10 µM
pIC50: −log10 of the molar value.
observable: pIC50

compound	pIC50
CC(=O)c1c(C)c2cnc(Nc3ccc(N4CCNCC4)cn3)nc2n(C2CCCC2)c1=O + CC(Nc1ncnc2nc[nH]c12)c1cc2cccc(Cl)c2c(=O)n1-c1ccccc1	< 7.00
Cn1cnc2c(F)c(Nc3ccc(Br)cc3Cl)c(C(=O)NOCCO)cc21 + CC(Nc1ncnc2nc[nH]c12)c1cc2cccc(Cl)c2c(=O)n1-c1ccccc1	> 8.02

// lookup pIC50 for CCCS(=O)(=O)Nc1ccc(F)c(C(=O)c2c[nH]c3ncc(-c4ccc(Cl)cc4)cc23)c1F + CC(Nc1ncnc2nc[nH]c12)c1cc2cccc(Cl)c2c(=O)n1-c1ccccc1
5.39

----------
Tested on: 953936-095-R-J2-PDC spheroids with HUVEC/MSC, viability
procedure text: Anticancer human tumor 953936-095-R-J2-PDC cell line growth inhibition [PI3K];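 also: spheroids exposed to compounds for seven days before read-out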
cond: second compound 3.16 µM; first compound 3.16 µM; stronger effect = lower value
observable: viability, T/C (%)
The reply should be a number in %, with the unit left off.

Observe how each entry below is paired with its result.
compound	assay target	viability, T/C, %
CC1(C)CCC(CN2CCN(c3ccc(C(=O)NS(=O)(=O)c4ccc(NCC5CCOCC5)c([N+](=O)[O-])c4)c(Oc4cnc5[nH]ccc5c4)c3)CC2)=C(c2ccc(Cl)cc2)C1 + Cc1nc(NC(=O)N2CCCC2C(N)=O)sc1-c1ccnc(C(C)(C)C(F)(F)F)c1	953936-095-R-J2-PDC spheroids with HUVEC/MSC, viability	22.3
CC1(C)CCC(Nc2ncc(C(F)(F)F)c(-c3c[nH]c4c(P(C)(C)=O)c(C#N)ccc34)n2)CN1 (stereo not given) + Cc1nc(NC(=O)N2CCCC2C(N)=O)sc1-c1ccnc(C(C)(C)C(F)(F)F)c1	953936-095-R-J2-PDC spheroids with HUVEC/MSC, viability	13.8
Cn1ncc(Cl)c1-c1cc(C(=O)NC(CN)Cc2cccc(F)c2)sc1Cl (stereo not given) + CC(Nc1ncnc2nc[nH]c12)c1cc2cccc(Cl)c2c(=O)n1-c1ccccc1	953936-095-R-J2-PDC spheroids with HUVEC/MSC, viability	18
C[C@@H](NC(=O)c1ncnc(N)c1Cl)c1ncc(C(=O)Nc2cc(C(F)(F)F)c(Cl)cn2)s1 + Cc1nc(NC(=O)N2CCCC2C(N)=O)sc1-c1ccnc(C(C)(C)C(F)(F)F)c1	953936-095-R-J2-PDC spheroids with HUVEC/MSC, viability	31

Next compound, viability, T/C to be filled in.
Bench note: what viability, T/C did CNC(=O)c1ccc(N2C(=S)N(c3ccc(C#N)c(C(F)(F)F)c3)C(=O)C2(C)C)cc1F + Cc1nc(NC(=O)N2CCCC2C(N)=O)sc1-c1ccnc(C(C)(C)C(F)(F)F)c1 show?
30
